Measured values drawn from PubChem BioAssay (NCATS) for this set.

assayExplanation: qHTS of pediatric cancer cell lines to identify multiple opportunities for drug repurposing: Primary screen for U-2 OS cells (AID 1347096); also: nearly all actives have a fitted effect of over 50% in size
appliedConditions: U-2 OS viability, CellTiter-Glo luminescence, 48 h; series mostly up to 46 µM
Records with an inconclusive call do not appear. The source made the active and inactive calls. Calls follow the shape of the dose curve; as a rule, active = well fitted cell-killing curve with a large enough effect; inconclusive = small, poorly fitted or top-dose-only effect; inactive = flat fitted curve, though single readings scatter.
Outcomes: 1 (active), -1 (inactive)

molecule: COc1cccc2c1C(=O)c1c(O)c3c(c(O)c1C2=O)C[C@@](O)(C(C)=O)C[C@H]3O[C@H]1C[C@H](N)[C@H](O)[C@H](C)O1
label: 1
--
molecule: CC[C@H]1OC(=O)[C@H](C)[C@@H](O[C@H]2C[C@@](C)(OC)[C@@H](O)[C@H](C)O2)[C@H](C)[C@@H](O[C@@H]2O[C@H](C)C[C@H](N(C)C)[C@@H]2O)[C@](C)(OC)C[C@@H](C)C(=O)[C@H](C)[C@@H](O)[C@]1(C)O
label: -1
--
molecule: N[C@H]1CN(c2c(F)cc3c(=O)c(C(=O)O)cn(C4C[C@@H]4F)c3c2Cl)CC12CC2 (stereo partly specified)
label: -1
--
molecule: O=C(Nc1cccc(Nc2ncc(Br)c(NCCc3cnc[nH]3)n2)c1)N1CCCC1
label: -1
--
molecule: CC(=O)O[C@@]12CO[C@H]1C[C@H](O)[C@@]1(C)C(=O)[C@H](O)C3=C(C)[C@@H](OC(=O)C(O)[C@@H](NC(=O)OC(C)(C)C)c4ccccc4)C[C@@](O)([C@@H](OC(=O)c4ccccc4)[C@@H]21)C3(C)C (stereo partly specified)
label: -1
--
molecule: OC[C@H]1OC(O)C[C@@H](O)[C@H]1O (stereo partly specified)
label: -1
